system: CCRIS mutagenicity, Ames/micronucleus/aberration tests; test: CCRIS mutagenicity studies; conditions: Test System: AMES SALMONELLA TYPHIMURIUM; Strain/Indicator: TA100; Metabolic Activation: RAT, LIVER, S-9, PHENOBARBITAL; Method: STANDARD PLATE
Active and inactive are the calls of the source. The rule behind the calls is not given here.
Give one outcome, nothing more. List: active, inactive

-- ask Status in this test for OC1C=CC=CC1O (stereo not given) ?
-- reply active

-- ask Input CC(C)Cc1ccc(C(C)C(=O)O)cc1 (stereo not given)
-- reply inactive

-- ask Input Cn1c2ccccc2c(=O)c2c(O)cc3c(c21)CC(C(C)(O)CCl)O3 (stereo not given)
-- reply active

-- ask Input CO[C@]1(CC[C@@H](C)CO[C@@H]2O[C@H](CO)[C@@H](O)[C@H](O)[C@H]2O)O[C@H]2C[C@H]3[C@@H]4CC=C5C[C@@H](O[C@@H]6O[C@H](CO)[C@@H](O)[C@H](O[C@@H]7O[C@H](CO)[C@@H](O)[C@H](O)[C@H]7O)C6O[C@@H]6O[C@@H](C)[C@H](O)[C@@H](O)[C@H]6O)CC[C@]5(C)[C@H]4CC[C@]3(C)[C@H]2[C@@H]1C (stereo not given in full)
-- reply inactive

-- ask Input "CN(C)N=Nc1ccc(C(=O)O)cc1"
-- reply inactive

-- ask Input "COc1c2cc3c(cc2nc2occc12)OCO3"
-- reply active

-- ask Input C[C@@H]1CC[C@@]2(OC1)O[C@H]1CC3[C@@H]4CC=C5C[C@@H](O[C@@H]6O[C@H](CO)[C@@H](O[C@@H]7O[C@@H](C)[C@H](O)[C@@H](O)[C@H]7O)[C@H](O)[C@H]6O[C@@H]6O[C@@H](C)[C@H](O)[C@@H](O)[C@H]6O)CC[C@]5(C)[C@H]4CC[C@]3(C)[C@H]1[C@@H]2C (stereo not given in full)
-- reply inactive

-- ask Input "CN(C)/N=N/c1nc[nH]c1C(N)=O"
-- reply active

-- ask Input "Nc1ccc(N=Nc2ccc(-c3ccc(N=Nc4c(S(=O)(=O)O)cc5c(c4N)C(=O)/C(=N/Nc4ccccc4)C(S(=O)(=O)O)=C5)cc3)cc2)c(N)c1"
-- reply inactive

-- ask Input "Cc1c2ccccc2cc2ccc3ccccc3c12"
-- reply active

-- ask Input "COc1c2ccoc2nc2c(OC)cccc12"
-- reply active

-- ask Input "O=C(O)/C(Cl)=C(\CO)C(Cl)Cl"
-- reply inactive

-- ask Input "Nc1ccc2[nH]c3ccccc3c2c1"
-- reply inactive

-- ask Input "COc1cccc2c1cc([N+](=O)[O-])c1c(C(=O)O)cc3c(c12)OCO3"
-- reply active

-- ask Input "N=C(N)c1ccc(-c2cc3ccc(C(=N)N)cc3s2)cc1"
-- reply inactive

* * *

system: CCRIS mutagenicity, Ames/micronucleus/aberration tests; assay: CCRIS mutagenicity studies; settings: Test System: AMES SALMONELLA TYPHIMURIUM; Strain/Indicator: TA98(NR); Metabolic Activation: NONE; Method: STANDARD PLATE
Activity calls are given as the source filed them. The rule behind the calls is not given here.
Give one outcome, nothing more. List: active, inactive

-- ask Status in this test for "O=[N+]([O-])c1cc2c3c(ccc4cccc(c43)CC2)c1" ?
-- reply active

-- ask Input "O=[N+]([O-])c1ccc2ccc3c4c(cc5ccc1c2c53)CCC=C4"
-- reply active

-- ask Input "O=[N+]([O-])c1ccc2c3c(c(O)ccc13)-c1ccccc1-2"
-- reply inactive

-- ask Input "O=[N+]([O-])c1cc2ccc3cccc4ccc(c1)c2c34"
-- reply active

-- ask Input "Nc1ccc2ccc3cccc4ccc1c2c34"
-- reply active

-- ask Input "O=[N+]([O-])c1ccc2c(CCO)c[nH]c2c1"
-- reply active

-- ask Input "O=[N+]([O-])c1ccc2c3cccc4cccc(c5c([N+](=O)[O-])ccc1c25)c43"
-- reply active

-- ask Input "COc1cccc2c1cc([N+](=O)[O-])c1c(C(=O)O)cc3c(c12)OCO3"
-- reply inactive

-- ask Input "O=[N+]([O-])c1cc2c3c(ccc4cc([N+](=O)[O-])cc(c43)CC2)c1"
-- reply active

-- ask Input "ONc1ccc(Sc2ccccc2)cc1"
-- reply active

-- ask Input "O=[N+]([O-])c1ccc(-c2ccccc2)cc1"
-- reply inactive

-- ask Input "O=[N+]([O-])c1ccc2ccc3cccc([N+](=O)[O-])c3c2c1"
-- reply active

-- ask Input "O=[N+]([O-])c1ccc2ccc3ccccc3c2c1"
-- reply active

-- ask Input "O=C1CN(/N=C/c2ccc([N+](=O)[O-])o2)C(=O)N1"
-- reply active

-- ask Input "O=[N+]([O-])c1ccc2[nH]c3c([N+](=O)[O-])cccc3c2c1"
-- reply active

-- ask Input "NC(=O)N/N=C/c1ccc([N+](=O)[O-])o1"
-- reply active

-- ask Input "CC(=O)OC(OC(C)=O)c1ccc([N+](=O)[O-])o1"
-- reply active

-- ask Input "O=C1NCCN1c1ncc([N+](=O)[O-])s1"
-- reply inactive

* * *

tested on: CCRIS mutagenicity, Ames/micronucleus/aberration tests; assay: CCRIS mutagenicity studies; details: Test System: AMES SALMONELLA TYPHIMURIUM; Strain/Indicator: TA98; Metabolic Activation: NONE; Method: STANDARD PLATE
Active and inactive are the calls of the source. The rule behind the calls is not given here.
Give one outcome, nothing more. List: active, inactive

-- ask Status in this test for "Oc1cc2c3ccccc3ccc2c2ccccc12" ?
-- reply inactive

-- ask Input "CN(C)c1ccc(-c2ccc(N(C)C)cc2)cc1"
-- reply inactive

-- ask Input "Cc1cc(-c2ccc(N)c(C)c2)ccc1N"
-- reply inactive

-- ask Input "Cc1cc(O)cc2oc(=O)c3c(O)cc(O)cc3c12"
-- reply inactive

-- ask Input "CC(C)C[C@H](NC(=O)COc1cc(Cl)c(Cl)cc1Cl)C(=O)O"
-- reply inactive

-- ask Input "O=C1c2c(O)ccc([N+](=O)[O-])c2C(=O)c2c([N+](=O)[O-])ccc(O)c21"
-- reply active

* * *

tested on: CCRIS mutagenicity, Ames/micronucleus/aberration tests; assay: CCRIS mutagenicity studies; settings: Test System: AMES SALMONELLA TYPHIMURIUM; Strain/Indicator: TA1535; Metabolic Activation: HAMSTER, LIVER, S-9, AROCLOR 1254; Method: STANDARD PLATE
Activity calls are given as the source filed them. The rule behind the calls is not given here.
Give one outcome, nothing more. List: true = active, false = inactive

-- ask Status in this test for "CCCO" ?
-- reply false

-- ask Input "COc1cc(/C=C/C(=O)CC(=O)/C=C/c2ccc(O)c(OC)c2)ccc1O"
-- reply false

-- ask Input "CC/C=C\C/C=C\C/C=C\CCCCCCCC(=O)O"
-- reply false

-- ask Input CCCCC(CC)COC(=O)c1ccc(N(C)N=O)cc1 (stereo unspecified)
-- reply false

-- ask Input "CCOC(=O)CBr"
-- reply false

-- ask Input "COc1cccc(CN(C)N=O)c1"
-- reply true

-- ask Input "C/C=C/C=C/C=O"
-- reply false

-- ask Input "CN(Cc1ccc([N+](=O)[O-])cc1)N=O"
-- reply true

-- ask Input "CC(=O)c1ccccn1"
-- reply false

-- ask Input "Oc1c(Br)cc(Br)cc1Br"
-- reply false

-- ask Input "Nc1ncn([C@@H]2O[C@H](CO)[C@@H](O)[C@@H]2O)c(=O)n1"
-- reply false

-- ask Input "Nc1ccc(Cl)c(N)c1"
-- reply false

-- ask Input "Nc1cccc2c(N)cccc12"
-- reply false

-- ask Input "Nc1ccc2ccccc2c1N=Nc1ccccc1"
-- reply false

-- ask Input "C=CC(=O)OCCOC(=O)C=C"
-- reply false

-- ask Input "C=C(C)C(C)=O"
-- reply false

* * *

tested on: CCRIS mutagenicity, Ames/micronucleus/aberration tests; experiment: CCRIS mutagenicity studies; details: Test System: UDS RAT HEPATOCYTES; Strain/Indicator: THY INCORP; Metabolic Activation: NONE; Method: LIQUID SCINTILLATION COUNTING
Active and inactive are the calls of the source. How the calls were made is not given here.
Give one outcome, nothing more. List: yes = active, no = inactive

-- ask Status in this test for "Cc1cnc2ccc3c(nc(N)n3C)c2n1" ?
-- reply no

-- ask Input "CCN(CC)N=O"
-- reply yes

-- ask Input "C/C=C\c1cc(OC)c(OC)cc1OC"
-- reply yes

-- ask Input "Cc1nc(N)cc2[nH]c3ccccc3c12"
-- reply no

-- ask Input "Cc1cccc(Nc2cc(Cl)nc(SCC(=O)O)n2)c1C"
-- reply yes

* * *

System: CCRIS mutagenicity, Ames/micronucleus/aberration tests
Test: CCRIS mutagenicity studies
Settings: Test System: AMES SALMONELLA TYPHIMURIUM; Strain/Indicator: TA1537; Metabolic Activation: HAMSTER, LIVER, S-9, AROCLOR 1254 (10%); Method: PREINCUBATION
Text: The CCRIS database contains chemical records with carcinogenicity, mutagenicity, tumor promotion, and tumor inhibition test results. It was developed by the National Cancer Institute (NCI). Data are derived from studies cited in primary journals, current awareness tools, NCI reports, and other sources. Test results have been reviewed by experts in carcinogenesis and mutagenesis. CCRIS provides historical information from the years 1985 - 2011. It is no longer updated. […]
The source made the active and inactive calls. The rule behind the calls is not given here.
Give one outcome, nothing more. List: active, inactive

-- ask Status in this test for "C=CC(=O)OC" ?
-- reply inactive

-- ask Input "O=C1c2c(Br)c(Br)c(Br)c(Br)c2C(=O)N1CCN1C(=O)c2c(Br)c(Br)c(Br)c(Br)c2C1=O"
-- reply inactive

-- ask Input "Cc1ccc(NC(N)=O)cc1"
-- reply inactive

-- ask Input "OC/C(Br)=C(\Br)CO"
-- reply active

-- ask Input "CC(C)NC(C)C"
-- reply inactive

-- ask Input CC(O)CNCC(C)O (stereo unspecified)
-- reply inactive

-- ask Input "Cc1ccc(S(=O)(=O)O)cc1C"
-- reply inactive

-- ask Input CC(O)CN(CC(C)O)CC(C)O (stereo unspecified)
-- reply inactive

-- ask Input CCCCCCCCCCCCCCCCC1CO1 (stereo unspecified)
-- reply inactive

-- ask Input "O=C=Nc1ccc(Cc2ccc(N=C=O)cc2)cc1"
-- reply inactive

-- ask Input CCCCC(CC)COC(=O)CCCCCCCCC(=O)OCC(CC)CCCC (stereo unspecified)
-- reply inactive

The measurements presented in this section are drawn from PubChem BioAssay AID1259407.
